molecular target: recombinant human DAO (diamine oxidase) (Homo sapiens, UniProt P19801); construct: purchased R&D systems; assay: Activity on recombinant human DAO, Amplex Red method, 1 mM putrescine substrate; assay type: biochemical; conditions: recombinant human DAO, 1 mM putrescine substrate; read-out: Inhibitory Activity (IC50, nM) DAO
Sequence (P19801 20-751): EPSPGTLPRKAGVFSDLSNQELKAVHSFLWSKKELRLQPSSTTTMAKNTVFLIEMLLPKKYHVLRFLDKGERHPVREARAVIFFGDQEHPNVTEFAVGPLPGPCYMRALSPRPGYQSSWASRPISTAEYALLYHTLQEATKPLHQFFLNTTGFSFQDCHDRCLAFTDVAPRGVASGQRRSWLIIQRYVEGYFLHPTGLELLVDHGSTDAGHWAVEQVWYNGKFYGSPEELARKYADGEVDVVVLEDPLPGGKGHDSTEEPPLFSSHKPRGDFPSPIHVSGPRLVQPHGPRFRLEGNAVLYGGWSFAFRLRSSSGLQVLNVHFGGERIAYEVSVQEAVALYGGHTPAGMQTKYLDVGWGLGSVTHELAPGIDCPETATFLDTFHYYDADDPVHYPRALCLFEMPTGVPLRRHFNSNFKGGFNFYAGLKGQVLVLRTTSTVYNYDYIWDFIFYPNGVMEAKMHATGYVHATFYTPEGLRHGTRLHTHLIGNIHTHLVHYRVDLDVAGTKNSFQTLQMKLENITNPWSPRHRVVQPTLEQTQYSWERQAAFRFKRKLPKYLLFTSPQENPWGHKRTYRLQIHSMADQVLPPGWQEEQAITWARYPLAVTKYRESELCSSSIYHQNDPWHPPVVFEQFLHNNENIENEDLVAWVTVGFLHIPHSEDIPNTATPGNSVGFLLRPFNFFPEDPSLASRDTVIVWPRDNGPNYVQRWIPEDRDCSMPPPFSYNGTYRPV
Structures can show the parent of a compound that is named as a salt.
METRIC_NAME: IC50 (nM)

CC(C)c1nc(-c2ccc(-c3cccc(-n4cnn(C/C(=C/F)CN)c4=O)n3)cc2)no1    1.4

[P] CN1C(=O)CCc2cc(-c3cccc(-n4cnn(C/C(=C/F)CN)c4=O)n3)ccc21 [Example 198, hydrochloride]
[Q] CN(C)c1ccc(C#Cc2cccc(-n3cnn(C/C(=C/F)CN)c3=O)n2)cn1
[R] NC/C(=C\F)Cn1ncn(-c2cc(/C=C/c3ccccc3)ccn2)c1=O [Example 236, hydrochloride]
-- ask Endpoint returns the given compounds ordered by ascending IC50. Your answer should be the labels, listed in the requested order.
-- reply R, Q, P
